Target: Orexin receptor type 2 (Homo sapiens)
Sequence (O43614 whole entry): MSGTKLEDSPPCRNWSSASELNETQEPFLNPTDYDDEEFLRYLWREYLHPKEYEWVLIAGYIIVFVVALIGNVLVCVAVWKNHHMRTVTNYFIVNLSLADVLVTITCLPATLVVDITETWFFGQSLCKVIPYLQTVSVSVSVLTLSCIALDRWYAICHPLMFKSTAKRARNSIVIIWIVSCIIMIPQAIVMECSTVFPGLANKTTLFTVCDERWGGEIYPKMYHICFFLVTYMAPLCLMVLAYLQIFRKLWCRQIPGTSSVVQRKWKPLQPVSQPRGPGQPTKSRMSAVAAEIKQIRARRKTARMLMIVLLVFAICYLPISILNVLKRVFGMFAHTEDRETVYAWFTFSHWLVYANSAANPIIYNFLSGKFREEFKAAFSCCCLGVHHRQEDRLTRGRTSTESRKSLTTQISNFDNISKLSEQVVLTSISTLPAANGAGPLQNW
Could you mark each record Yes if its IC50 falls strictly under 70 nM, and No if it equals or exceeds it?

# input Threshold test, IC50 < 70 nM: CC(C)OC(=O)N1[C@H](C)C[C@H](NS(C)(=O)=O)[C@@H]1COC1CCC(C(C)C)CC1 (some centres not stated)
# output No

# input Also check CNS(=O)(=O)N[C@H]1C[C@@H](C)N(C(=O)OCC(F)F)[C@H]1COC1CCC(C(C)C)CC1 (some centres not stated)
# output Yes

# input Now consider COC(=O)N1[C@H](C)C[C@H](NS(C)(=O)=O)[C@@H]1COC1CCC(CC(F)(F)F)CC1 (some centres not stated) and answer again.
# output No

# input Param item: CC(C)C1CCC(OC[C@H]2[C@@H](NS(=O)(=O)N(C)C)C[C@@H](C)N2C(=O)OCC(F)F)CC1 (some centres not stated)
# output Yes

# input // repeat for COC(=O)N1[C@H](C)C[C@H](NS(C)(=O)=O)[C@@H]1COC1CCC(C(C)C)CC1 (some centres not stated) and report
# output Yes

# input What do you get for COC(=O)N1[C@H](C)C[C@H](NS(=O)(=O)N(C)CCS(C)(=O)=O)[C@@H]1COC1CCC(c2cccc(F)c2)CC1 (some centres not stated) ?
# output Yes

# input Ok, now CC[C@@H]1C[C@H](NS(C)(=O)=O)[C@H](CO[C@H]2CC[C@@H](c3ccccc3)CC2)N1C(=O)OC (racemic)
# output Yes

# input Next entry: CC(C)C1CCC(OC[C@H]2[C@@H](NS(C)(=O)=O)C[C@@H](C)N2C(=O)OCC(F)F)CC1 (some centres not stated)
# output Yes

# input Now this one: COC(=O)N1[C@H](C)C[C@H](NS(=O)(=O)N(C)C)[C@@H]1COC1CCC(C(F)(F)F)CC1 (some centres not stated)
# output No

# input Same again, this time with CCOC(=O)N1[C@H](C)C[C@H](NS(=O)(=O)N(C)C)[C@@H]1COC1CCC(C(C)C)CC1 (some centres not stated)
# output Yes

# input And what about the molecule CCNC(=O)N1[C@H](C)C[C@H](NS(C)(=O)=O)[C@@H]1COC1CCC(C(F)(F)F)CC1 (some centres not stated) ?
# output No
